From: patent US5234948A

compounds and their reported pKi
Protein target, amino acids: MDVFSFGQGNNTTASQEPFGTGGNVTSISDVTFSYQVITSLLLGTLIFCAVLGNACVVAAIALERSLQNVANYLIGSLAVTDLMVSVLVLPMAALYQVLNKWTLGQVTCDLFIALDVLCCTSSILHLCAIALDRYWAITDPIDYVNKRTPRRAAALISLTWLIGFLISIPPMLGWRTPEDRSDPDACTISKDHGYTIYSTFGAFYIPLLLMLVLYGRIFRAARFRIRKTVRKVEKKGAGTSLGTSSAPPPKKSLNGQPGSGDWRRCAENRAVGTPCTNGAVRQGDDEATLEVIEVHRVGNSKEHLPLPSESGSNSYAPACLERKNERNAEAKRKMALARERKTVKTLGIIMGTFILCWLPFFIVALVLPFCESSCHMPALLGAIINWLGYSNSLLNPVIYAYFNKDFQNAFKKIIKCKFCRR
Where a name gives a salt, the structure may show the parent alone.
pKi field: float, defined as -log10 of concentration (mol/L).

Example entries and their recorded answers appear below.
1) c1ccc2c(c1)OCC(CNCCCOc1ccc3c(c1)OCO3)O2 (racemic); 8.80
2) c1ccc2c(c1)OC[C@H](CNCCCCOc1ccc3c(c1)OCO3)O2 [Compound No. 4, hydrochloride]; 9.04
3) c1ccc2c(c1)OC[C@H](CNCCCOc1ccc3c(c1)OCO3)O2 [Compound No. 1, hydrochloride]; 9.54
4) c1ccc2c(c1)OC[C@H](CNCCCCCOc1ccc3c(c1)OCO3)O2 [Compound No. 7, hydrochloride]; 8.74
5) c1ccc2c(c1)OCC(CNCCCCOc1ccc3c(c1)OCCCO3)O2 (racemic); 8.54
6) c1ccc2c(c1)OC[C@@H](CNCCCOc1ccc3c(c1)OCO3)O2 [No. 1 (R)]; 8.41

Attention now shifts to the item below.
Task: Report pKi, nothing else, for this compound: c1ccc2c(c1)OCC(CNCCCOc1ccc3c(c1)OCCO3)O2 (racemic)
Result: 8.60
